assay: chemical genetic growth profiling, strain panel (AID 1159580);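 note: tested at 20 µM; growth read once vehicle control cultures reached saturation at 30 °C; 1 = growth at the plate median or of vehicle wells; lower values mean less growth of the strain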; conditions: S. cerevisiae deletion strains, growth OD, locus YHR079C, strain IRE1, hits give low values
Out of some 5,500 compounds screened, about 2,000 (36%) were called active. Another 18% or so got no clear call; they are omitted. The list shows a part of the results.
Readout Name: normalized growth
The answer should be a number; do not append a unit.

Input CC(=O)Oc1cc(OC(C)=O)c2c(c1)O[C@H](c1ccc(OC(C)=O)c(OC(C)=O)c1)[C@@H](OC(C)=O)C2 . Output normalized growth: 0.98

According to the records, this compound COC(=O)[C@@H]1OC(=O)C2OC23[C@@]1(C)CCC1[C@]2(C)C(C[C@H](O)[C@]13C)C(C)(C)[C@H](OC(C)=O)C[C@@H]2OC(C)=O (some centres not stated) displays normalized growth of 0.977

Recorded result, N#C/C(=N/Nc1ccc(F)cc1)S(=O)(=O)c1ccc(Cl)cc1 , normalized growth: 0.993

Measured normalized growth, CCCN(CCC)C(=S)NC(=O)c1cccc([N+](=O)[O-])c1 : 0.978

Reported normalized growth of COc1ccc(-c2coc3cc(O)ccc3c2=O)cc1 : 0.936

According to the records, this compound COc1ccc2c(=O)c(-c3ccc(O)cc3)coc2c1 displays normalized growth of 0.939

Briefly, normalized growth measured for OC[C@@H](O)[C@@H](O)[C@H](O)[C@@H](O)CO : 0.96

O=c1c(-c2ccc(O)cc2)coc2cc(O)ccc12 has a reported normalized growth of 0.999

The reported value for CCOC(=O)c1ccc2nc(N=CNO)sc2c1 in terms of normalized growth is 0.964

Form: compound = COc1ccc(C(CC(=O)c2ccccc2)Sc2ccccc2N)cc1OC (configuration not stated) ; normalized growth = 0.95

Kindly note the recorded normalized growth for O=C(O[C@@H]1Cc2c(O)cc(O)cc2O[C@@H]1c1cc(O)c(O)c(O)c1)c1cc(O)c(O)c(O)c1 , which is 1.03

Item: CC(C)(C)c1ccc(N/N=C(\C#N)C(N)=O)cc1 | normalized growth: 0.214

Measured normalized growth, Cc1cc(C(=O)NNS(=O)(=O)c2ccc(F)c(Cl)c2)nn1-c1c(Cl)cc(Cl)cc1Cl : 1.05

The compound listed as COc1cc(Cl)ccc1N/N=C(/C#N)C(N)=O has a reported normalized growth of 0.214

Entry under test: COc1ccc2c(c1)OC/C(=C/c1ccc(OC)c(OC)c1)C2=O . Its normalized growth was 0.952

normalized growth reading for COc1ccc(-c2coc3cc(OC)ccc3c2=O)cc1 : 0.976

Record NCCCS(=O)(=O)O , field normalized growth: 0.996

In plain terms, N#C/C(=N/Nc1ccc(F)cc1)C(=O)c1ccccc1 has a documented normalized growth of 0.826

For record CCCc1cc(C(N)=S)ccn1 the listed normalized growth is 1.02

normalized growth recorded for this compound, O=C(c1ccc(OCCN2CCCCC2)cc1)c1c(-c2ccc(O)cc2)sc2cc(O)ccc12 , is 0.968

Value of normalized growth reported for the compound CC(=O)Oc1cc(OC(C)=O)c2c(c1)O[C@H](c1ccc(OC(C)=O)c(OC(C)=O)c1)[C@H](OC(C)=O)C2 is 0.968

response.value for N#C/C(=N/Nc1ccccc1)C(=O)c1ccccc1OC(F)(F)F (field: normalized growth) = 0.853

Where do these numbers come from? They come from PubChem BioAssay AID1159580.
